Target or system Serine/threonine-protein kinase pim-1 (Homo sapiens): recorded IC50 listed per item.
Readout label: IC50 (nM)

* O=[N+]([O-])c1cc2n[nH]cc2c2c1[nH]c1ccccc12 | 40

a = O=[N+]([O-])c1cc2c[nH]nc2c2c1[nH]c1ccccc12
b = COc1ccc2[nH]c3c([N+](=O)[O-])cc4n[nH]cc4c3c2c1
Lower IC50: a or b ? Kindly give the label for the entry you pick.
b

* * *

target: Serine/threonine-protein kinase pim-2 (Homo sapiens) (UniProt Q9P1W9); assay: Inhibition of human PIM2 assessed as residual activity using RSRHSSYPAGT as substrate at 1 uM after 30 mins
Sequence (Q9P1W9 whole entry, looked up): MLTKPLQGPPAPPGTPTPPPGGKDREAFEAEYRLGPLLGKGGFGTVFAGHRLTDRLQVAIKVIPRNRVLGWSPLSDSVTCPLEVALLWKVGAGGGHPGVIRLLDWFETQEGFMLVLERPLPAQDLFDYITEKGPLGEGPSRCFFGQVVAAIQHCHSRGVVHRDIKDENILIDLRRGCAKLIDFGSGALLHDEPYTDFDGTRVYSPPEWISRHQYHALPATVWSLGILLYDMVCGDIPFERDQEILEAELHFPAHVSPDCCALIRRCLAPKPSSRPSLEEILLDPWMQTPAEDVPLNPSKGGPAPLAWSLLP
Readout label: Activity (%)

Example entries begin here.
- O=[N+]([O-])c1cc2[nH]ncc2c2c1[nH]c1ccccc12: 49
- COc1ccc2[nH]c3c(N)cc4[nH]ncc4c3c2c1: 123
- Nc1cc2[nH]ncc2c2c1[nH]c1ccc(Cl)cc12: 107
- COc1ccc2[nH]c3c([N+](=O)[O-])cc4[nH]ncc4c3c2c1: 54
- O=[N+]([O-])c1cc2cn[nH]c2c2c1[nH]c1ccccc12: 76

P = Nc1cc2cn[nH]c2c2c1[nH]c1ccc(Cl)cc12
Q = O=[N+]([O-])c1cc2[nH]ncc2c2c1[nH]c1ccc(Cl)cc12
Lower Activity: P or Q ? Kindly give the label for the entry you pick.
Q
(Q: 57%, P: 115%)

Where do the numbers come from? From ChEMBL document CHEMBL2396576.
